The measurements presented in this section are drawn from patent US20200339511A1.

Tested on: DENV-2 strain 16681
assay-text: Tetravalent RT-qPCR assay, serotype 2
Assay type: cell-based, Dengue virus
condition: Dengue virus, DENV2, Vero, 72 h, RT-qPCR serotype 2 16681, Protocol A, Vero cells, day 3
metric: pEC50
Give bare numbers, as −log10 of the molar value.

Worked examples follow.
COc1cc(NC(C(=O)N2CCc3ccc(C(F)(F)F)cc32)c2ccc(Cl)cc2OC)cc(OCCO)c1 (single isomer, unassigned) [Compound 1B] : 8.44
COc1cc(NC(C(=O)N2CCc3ccc(C(F)(F)F)cc32)c2ccc(Cl)cc2F)cc(OCCO)c1 (single isomer, unassigned) [Compound 2B] : 8.49
COc1cc(NC(C(=O)N2CCc3ccc(OC(F)(F)F)cc32)c2ccc(Cl)cc2OC)cc(OCCO)c1 (single isomer, unassigned) [Compound 5A] : 8.52
COc1cc(NC(C(=O)N2CCc3cc(F)c(C(F)(F)F)cc32)c2ccc(Cl)cc2)cc(OCCO)c1 (single isomer, unassigned) [Compound 12A] : 8.36
COc1cc(NC(C(=O)N2CCc3cc(OC)c(C(F)(F)F)cc32)c2ccc(Cl)cc2OC)cc(OCCO)c1 (single isomer, unassigned) [Compound 11B] : 8.70

Now turn to the next compound.
Per the records, this compound ( COc1cc(NC(C(=O)N2CCc3cc(OC)c(C(F)(F)F)cc32)c2ccc(Cl)cc2F)cc(OCCO)c1 (single isomer, unassigned) [Compound 8B] ) has pEC50 equal to 8.64

###

System: DENV-3 strain H87
assay-text: Tetravalent RT-qPCR assay, serotype 3
Type: cell-based, Dengue virus
condition: Dengue virus, DENV3, Vero, 72 h, RT-qPCR serotype 3 H87, Protocol A, Vero cells, day 3
Experimental: Tetravalent reverse transcriptase quantitative-PCR (RT-qPCR) assay The antiviral activity of the compounds of the invention was tested against DENV-1 strain TC974#666 (NCPV), DENV-2 strain 16681, DENV-3 strain H87 (NCPV) and DENV-4 strain H241 (NCPV) in a RT-qPCR assay. Therefore, Vero cells were infected with either DENV-1, or -2, or -3, or -4 in the presence or absence of test compounds. […] In addition, CC50 values are determined based on the Cp values acquired for the housekeeping gene β-actin. […]
metric: EC50 (nM)
Answers are plain numbers, in nM.

See these solved cases before continuing.
COc1cc(NC(C(=O)N2CCc3ccc(C(F)(F)F)cc32)c2ccc(Cl)cc2OC)cc(OCCO)c1 (single isomer, unassigned) : 56
COc1cc(NC(C(=O)N2CCc3cc(OC)c(C(F)(F)F)cc32)c2ccc(Cl)cc2F)cc(OCCO)c1 (single isomer, unassigned) : 50
COc1cc(NC(C(=O)N2CCc3c(C)cc(C(F)(F)F)cc32)c2ccc(Cl)cc2)cc(OCCO)c1 (single isomer, unassigned) [Compound 10B] : 16

Respectfully, I request EC50 for each entry included below.
1. COc1cc(NC(C(=O)N2CCc3cc(OC)c(C(F)(F)F)cc32)c2ccc(Cl)cc2OC)cc(OCCO)c1 (single isomer, unassigned) [Compound 11B]
2. COc1cc(NC(C(=O)N2CCc3ccc(C(F)(F)F)cc32)c2ccc(Cl)cc2F)cc(OCCO)c1 (single isomer, unassigned)
3. COc1cc(NC(C(=O)N2CCc3cc(OC)c(C(F)(F)F)cc32)c2ccc(Cl)cc2)cc(OCCO)c1 (single isomer, unassigned)
4. COc1cc(NC(C(=O)N2CCc3cc(F)c(C(F)(F)F)cc32)c2ccc(Cl)cc2)cc(OCCO)c1 (single isomer, unassigned) [Compound 12A]
5. COc1cc(NC(C(=O)N2CCc3cc(OC)c(OC(F)(F)F)cc32)c2ccc(Cl)cc2)cc(OCCO)c1 (single isomer, unassigned) [Compound 13A]
6. COc1cc(NC(C(=O)N2CCc3ccc(OC(F)(F)F)cc32)c2ccc(Cl)cc2)cc(OCCO)c1 (single isomer, unassigned)

1. 34
2. 29
3. 30
4. 40
5. 43
6. 29

###

Test system: Vero cells
condition: African green monkey
metric: CC50

Use these answered entries as a reference point.
COc1cc(NC(C(=O)N2CCc3cc(OC)c(C(F)(F)F)cc32)c2ccc(Cl)cc2OC)cc(OCCO)c1 (single isomer, unassigned) [Compound 11B] : > 25 µM
COc1cc(NC(C(=O)N2CCc3cc(OC)c(C(F)(F)F)cc32)c2ccc(Cl)cc2F)cc(OCCO)c1 (single isomer, unassigned) [Compound 8A] : > 25 µM
COc1cc(NC(C(=O)N2CCc3cc(OC)c(C(F)(F)F)cc32)c2ccc(Cl)cc2F)cc(OCCO)c1 (single isomer, unassigned) [Compound 8B] : ≥ 76 µM

Let us examine a further case.
// field: CC50; key: COc1cc(NC(C(=O)N2CCc3cc(OC)c(OC(F)(F)F)cc32)c2ccc(Cl)cc2)cc(OCCO)c1 (single isomer, unassigned) [Compound 13B] ; value = > 25 µM

###

assay-text: in vitro
condition: African green monkey
Criterion: CC50 strictly less than 10 µM. Met: fulfilled. Not met: not fulfilled.

The following molecules have reported results that may help.
COc1cc(NC(C(=O)N2CCc3cc(OC)c(C(F)(F)F)cc32)c2ccc(Cl)cc2F)cc(OCCO)c1 (racemic) [Compound 8] : not fulfilled
COc1cc(NC(C(=O)N2CCc3ccc(C(F)(F)F)cc32)c2ccc(Cl)cc2F)cc(OCCO)c1 (single isomer, unassigned) [Compound 2A] : not fulfilled
COc1cc(NC(C(=O)N2CCc3ccc(C(F)(F)F)cc32)c2ccc(Cl)cc2)cc(OCCO)c1 (single isomer, unassigned) [Compound 4A] : not fulfilled
COc1cc(NC(C(=O)N2CCc3cc(F)c(C(F)(F)F)cc32)c2ccc(Cl)cc2)cc(OCCO)c1 (racemic) [Compound 12] : not fulfilled
COc1cc(NC(C(=O)N2CCc3cc(OC)c(OC(F)(F)F)cc32)c2ccc(Cl)cc2)cc(OCCO)c1 (racemic) [Compound 13] : not fulfilled

Strictly below 10 µM in CC50? COc1cc(NC(C(=O)N2CCc3ccc(OC(F)(F)F)cc32)c2ccc(Cl)cc2OC)cc(OCCO)c1 (racemic) [Compound 5]
fulfilled

Say whether its CC50 is strictly beneath 10 µM. Entry: COc1cc(NC(C(=O)N2CCc3c(C)cc(C(F)(F)F)cc32)c2ccc(Cl)cc2)cc(OCCO)c1 (single isomer, unassigned) [Compound 10A]
not fulfilled

Is 10 µM strictly greater than the molecule's reported CC50? molecule: COc1cc(NC(C(=O)N2CCc3ccc(C(F)(F)F)cc32)c2ccc(Cl)cc2OC)cc(OCCO)c1 (single isomer, unassigned) [Compound 1A]
not fulfilled

###

For each of the compounds below, state its melting point.
Give bare numbers, in °C.

Below are worked cases with known answers.
COc1cc(NC(C(=O)N2CCc3ccc(C(F)(F)F)cc32)c2ccc(Cl)cc2)cc(OCCO)c1 (racemic) : 160
COc1cc(NC(C(=O)N2CCc3ccc(OC(F)(F)F)cc32)c2ccc(Cl)cc2)cc(OCCO)c1 (racemic) : 162
COc1cc(NC(C(=O)N2CCc3ccc(C(F)(F)F)cc32)c2ccc(Cl)cc2OC)cc(OCCO)c1 (racemic) : 194
COc1cc(NC(C(=O)N2CCc3cc(OC)c(OC(F)(F)F)cc32)c2ccc(Cl)cc2)cc(OCCO)c1 (racemic) : 165

Next up:
The value of melting point measured for the compound COc1cc(NC(C(=O)N2CCc3ccc(OC(F)(F)F)cc32)c2ccc(Cl)cc2OC)cc(OCCO)c1 (racemic) turned out to be 162

###

assay-text: in vitro
condition: African green monkey
Provide the recorded CC50 for the entries that follow.
Answers are plain numbers, in µM.

COc1cc(NC(C(=O)N2CCc3ccc(OC(F)(F)F)cc32)c2ccc(Cl)cc2)cc(OCCO)c1 (racemic) [Compound 3] : 9.5

For each listed entry, give its CC50.
1. COc1cc(NC(C(=O)N2CCc3ccc(C(F)(F)F)cc32)c2ccc(Cl)cc2F)cc(OCCO)c1 (racemic) [Compound 2]
2. COc1cc(NC(C(=O)N2CCc3ccc(OC(F)(F)F)cc32)c2ccc(Cl)cc2)cc(OCCO)c1 (single isomer, unassigned) [Compound 3A]
3. COc1cc(NC(C(=O)N2CCc3cc(OC)c(C(F)(F)F)cc32)c2ccc(Cl)cc2OC)cc(OCCO)c1 (racemic) [Compound 11]
4. COc1cc(NC(C(=O)N2CCc3ccc(OC(F)(F)F)cc32)c2ccc(Cl)cc2OC)cc(OCCO)c1 (single isomer, unassigned) [Compound 5A]

[12, 9.6, 22, 9.8]

Give CC50 for all molecules that follow.
1. COc1cc(NC(C(=O)N2CCc3ccc(OC(F)(F)F)cc32)c2ccc(Cl)cc2F)cc(OCCO)c1 (single isomer, unassigned) [Compound 6A]
2. COc1cc(NC(C(=O)N2CCc3cc(F)c(C(F)(F)F)cc32)c2ccc(Cl)cc2)cc(OCCO)c1 (single isomer, unassigned) [Compound 12A]

1. 17
2. 12
